For each record, write down the corresponding zone of inhibition at 100 µg/mL.
# Test system: Bacillus subtilis
# experimentNotes: Antibacterial activity against Bacillus subtilis at 100 ug/ml after 24 hrs by agar well diffusion method
# Assay type: functional
# measurementConditions: read-out: DIZ
Numeric answer only, unit mm assumed.

Request: Which measured zone of inhibition at 100 µg/mL value corresponds to `Cc1cccc2nc(N/N=C/c3ccc(F)cc3)sc12` ?
Response: 14

Request: Returns the measured zone of inhibition at 100 µg/mL for the input compound. Input: `Cc1cccc2nc(N/N=C/c3ccc(F)cc3F)sc12`
Response: 15

Request: For `Cc1cccc2nc(N/N=C/c3ccc(O)cc3)sc12` , what is its reported zone of inhibition at 100 µg/mL?
Response: 21

Request: Can you share its zone of inhibition at 100 µg/mL? I mean this compound: `Cc1cccc2nc(N/N=C/c3cccs3)sc12`
Response: 24

Request: Suppose we examine the compound `Cc1cccc2nc(N/N=C/c3cc4ccccc4[nH]3)sc12` ; what zone of inhibition at 100 µg/mL value has been reported?
Response: 21

Request: I'd like to know its zone of inhibition at 100 µg/mL. The compound in question is `Cc1cccc2nc(N/N=C/c3cc(O)c(O)c(O)c3)sc12`
Response: 35

Request: Give its zone of inhibition at 100 µg/mL value. Item: `COc1cc(/C=N/Nc2nc3cccc(C)c3s2)cc(OC)c1OC`
Response: 33

Request: Would you mind telling me what zone of inhibition at 100 µg/mL value was observed for `Cc1cccc2nc(N/N=C/c3ccc([N+](=O)[O-])cc3)sc12` ?
Response: 11

Request: May I ask what zone of inhibition at 100 µg/mL has been recorded for `Cc1cccc2nc(N/N=C/c3ccc(O)cc3O)sc12` ?
Response: 28

Request: Which zone of inhibition at 100 µg/mL value is on record for `COc1cc(/C=N/Nc2nc3cccc(C)c3s2)ccc1O` ?
Response: 28

Request: // query zone of inhibition at 100 µg/mL value for entry `COc1ccc(/C=N/Nc2nc3cccc(C)c3s2)cc1Br`
Response: 16

###

# System: Fusarium verticillioides
# experimentNotes: Antifungal activity against Fusarium moniliforme at 50 ug/ml after 48 hrs by agar well diffusion method
# Assay type: functional
# measurementConditions: read-out: DIZ
Is zone of inhibition at 50 µg/mL at least 20 mm? Then Satisfied. If not, Not satisfied.

Request: Form field: zone of inhibition at 50 µg/mL at least 20 mm? Entry: `Cc1cccc2nc(N/N=C/c3ccc(Br)cc3)sc12`
Response: Not satisfied

Request: Hi team, for `COc1cc(/C=N/Nc2nc3cccc(C)c3s2)cc(OC)c1OC` , is the recorded zone of inhibition at 50 µg/mL at or above 20 mm?
Response: Satisfied

Request: Given `Cc1cccc2nc(N/N=C/c3ccc(Cl)cc3)sc12` , state whether its zone of inhibition at 50 µg/mL is at least 20 mm.
Response: Not satisfied

Request: Entry `Cc1cccc2nc(N/N=C/c3ccc(Br)cc3Br)sc12` : is its zone of inhibition at 50 µg/mL no less than 20 mm?
Response: Satisfied

Request: Does zone of inhibition at 50 µg/mL meet or surpass 20 mm for `COc1cc(/C=N/Nc2nc3cccc(C)c3s2)cc(Br)c1O` ?
Response: Not satisfied

Request: Tell me whether zone of inhibition at 50 µg/mL is at least 20 mm here: `COc1ccc(/C=N/Nc2nc3cccc(C)c3s2)cc1Br`
Response: Not satisfied

Request: // inclusive: zone of inhibition at 50 µg/mL at least 20 mm? input: `Cc1cccc2nc(N/N=C/c3cccs3)sc12`
Response: Not satisfied

Request: State whether the measured zone of inhibition at 50 µg/mL reaches 20 mm, counting equality as reaching it, for `Cc1cccc2nc(N/N=C/c3ccc([N+](=O)[O-])cc3[N+](=O)[O-])sc12`
Response: Satisfied

Request: Given `Cc1cccc2nc(N/N=C/c3cc(O)c(O)c(O)c3)sc12` , state whether its zone of inhibition at 50 µg/mL is at least 20 mm.
Response: Not satisfied

Request: // inclusive: zone of inhibition at 50 µg/mL at least 20 mm? input: `Cc1cccc2nc(N/N=C/c3ccc(Cl)cc3Cl)sc12`
Response: Satisfied

Request: Exam item: decide whether the reported zone of inhibition at 50 µg/mL for `Cc1cccc2nc(N/N=C/c3ccc(O)cc3)sc12` is at least 20 mm.
Response: Not satisfied

Request: Form field: zone of inhibition at 50 µg/mL at least 20 mm? Entry: `Cc1cccc2nc(N/N=C/c3ccc(F)cc3)sc12`
Response: Not satisfied

###

# System: Aspergillus niger
# experimentNotes: Antifungal activity against Aspergillus niger at 25 ug/ml after 48 hrs by agar well diffusion method
# Assay type: functional
# measurementConditions: read-out: DIZ
For each entry below, report its zone of inhibition at 25 µg/mL value.
Numeric only. Scale: mm

Request: # get_value(readout='zone of inhibition at 25 µg/mL', item= `Cc1cccc2nc(N/N=C/c3ccc(F)cc3)sc12` )
Response: 10

Request: Which zone of inhibition at 25 µg/mL value belongs to `Cc1cccc2nc(N/N=C/c3ccc(Br)cc3Br)sc12` ?
Response: 24

Request: Item `Cc1cccc2nc(N/N=C/c3cccs3)sc12` has what recorded zone of inhibition at 25 µg/mL?
Response: 11

Request: Quick one: zone of inhibition at 25 µg/mL for `Cc1cccc2nc(N/N=C/c3cc(O)c(O)c(O)c3)sc12` ?
Response: 10

Request: Given the entry `Cc1cccc2nc(N/N=C/c3ccncc3)sc12` , report its measured zone of inhibition at 25 µg/mL.
Response: 6

Request: Recorded zone of inhibition at 25 µg/mL of `Cc1cccc2nc(N/N=C/c3ccc(O)cc3O)sc12` , please.
Response: 8

Request: Reported zone of inhibition at 25 µg/mL for `Cc1cccc2nc(N/N=C/c3ccc(Cl)cc3)sc12` : what is it?
Response: 8

Request: I have this compound here, `Cc1cccc2nc(N/N=C/c3ccc(Br)cc3)sc12` , and I need its recorded zone of inhibition at 25 µg/mL.
Response: 14

Request: # input compound: `Cc1cccc2nc(N/N=C/c3ccc(Cl)cc3Cl)sc12` ; wanted: its zone of inhibition at 25 µg/mL
Response: 20

Request: Could you tell me which zone of inhibition at 25 µg/mL is on file for `Cc1cccc2nc(N/N=C/c3ccc([N+](=O)[O-])cc3[N+](=O)[O-])sc12` ?
Response: 21

Request: Any idea what its zone of inhibition at 25 µg/mL is? The compound is `COc1ccc(/C=N/Nc2nc3cccc(C)c3s2)cc1`
Response: 8

Request: Item under review: `Cc1cccc2nc(N/N=C/c3cc4ccccc4[nH]3)sc12` . Reported zone of inhibition at 25 µg/mL?
Response: 12

###

# System: Staphylococcus aureus
# experimentNotes: Antibacterial activity against Staphylococcus aureus at 100 ug/ml after 24 hrs by agar well diffusion method
# Format: functional
# measurementConditions: read-out: DIZ
propertyName: zone of inhibition at 100 µg/mL (mm)
Answer with a number only, understood to be in mm.

Request: What zone of inhibition at 100 µg/mL value was documented for this molecule, `Cc1cccc2nc(N/N=C/c3ccc(Br)cc3)sc12` ?
Response: 9

Request: # zone of inhibition at 100 µg/mL lookup, item `Cc1cccc2nc(N/N=C/c3ccc(F)cc3)sc12`
Response: 18

Request: // zone of inhibition at 100 µg/mL lookup, key: `Cc1cccc2nc(N/N=C/c3ccc(Br)cc3Br)sc12`
Response: 21

Request: Looking for the measured zone of inhibition at 100 µg/mL of `Cc1cccc2nc(N/N=C/c3ccc(O)cc3O)sc12` , can you help?
Response: 26

Request: Consider the molecule `Cc1cccc2nc(N/N=C/c3cc4ccccc4[nH]3)sc12` and give its measured zone of inhibition at 100 µg/mL.
Response: 30

Request: Sample `Cc1cccc2nc(N/N=C/c3ccc(Cl)cc3)sc12` — what was its zone of inhibition at 100 µg/mL?
Response: 13

Request: For the molecule O=C(N[C@H](CO)[C@H](O)c1ccc([N+](=O)[O-])cc1)C(Cl)Cl [CHLORAMPHENICOL] , what zone of inhibition at 100 µg/mL is on record?
Response: 37

Request: Which zone of inhibition at 100 µg/mL is reported for this molecule? `COc1ccc(/C=N/Nc2nc3cccc(C)c3s2)c(OC)c1`
Response: 28

Request: Could you tell me which zone of inhibition at 100 µg/mL is on file for `Cc1cccc2nc(N/N=C/c3cccs3)sc12` ?
Response: 28

Request: Param item = `COc1cc(/C=N/Nc2nc3cccc(C)c3s2)cc(Br)c1O` ; retrieve measured zone of inhibition at 100 µg/mL.
Response: 16

Request: Give its zone of inhibition at 100 µg/mL value. Item: `COc1cc(/C=N/Nc2nc3cccc(C)c3s2)cc(OC)c1OC`
Response: 38

Request: # input molecule: `Cc1cccc2nc(N/N=C/c3ccc([N+](=O)[O-])cc3)sc12` ; wanted: its zone of inhibition at 100 µg/mL
Response: 14

Request: Return reported zone of inhibition at 100 µg/mL; argument: `Cc1cccc2nc(N/N=C/c3cc(O)c(O)c(O)c3)sc12`
Response: 31

Request: Using the record for `COc1ccc(/C=N/Nc2nc3cccc(C)c3s2)cc1` , report its zone of inhibition at 100 µg/mL.
Response: 24

Request: Can you look up the measured zone of inhibition at 100 µg/mL of `Cc1ccc(/C=N/Nc2nc3cccc(C)c3s2)cc1` for me?
Response: 10

Request: I have this molecule here, `Cc1cccc2nc(N/N=C/c3ccc(O)cc3)sc12` , and I need its recorded zone of inhibition at 100 µg/mL.
Response: 23

Request: Please report the recorded zone of inhibition at 100 µg/mL for `Cc1cccc2nc(N/N=C/c3ccc(F)cc3F)sc12` .
Response: 15

Request: Quick one: zone of inhibition at 100 µg/mL of `Cc1cccc2nc(N/N=C/c3ccc([N+](=O)[O-])cc3[N+](=O)[O-])sc12` ?
Response: 19

Request: Item under review: `COc1cc(/C=N/Nc2nc3cccc(C)c3s2)ccc1OCc1ccccc1` . Reported zone of inhibition at 100 µg/mL?
Response: 18

Request: // query zone of inhibition at 100 µg/mL value for entry `COc1cc(/C=N/Nc2nc3cccc(C)c3s2)ccc1O`
Response: 26

Request: What does the record list as zone of inhibition at 100 µg/mL for `Cc1cccc2nc(N/N=C/c3ccc(Cl)cc3Cl)sc12` ?
Response: 20
